# assay-details: qHTS assay for identifying genotoxic compounds that show differential cytotoxicity against isogenic chicken DT40 cell lines with known DNA damage response pathways - wild type cell line (AID 743012); further: nearly all actives have a fitted effect of over 60% in size
# details: DT40 wild type chicken cells viability, CellTiter-Glo, 40 h; series mostly up to 68.4 µM
Results filed as inconclusive are left out. Calls of active or inactive are those of the source. The call rests on the fitted dose curve; in most records, active means well fitted cell-killing curve with a large enough effect in the repeat runs; inconclusive means weak or mixed curves, or effect the other way; inactive means no such curve, though single readings can be large or run the other way.
Hi! Could you answer with just one of these? active, inactive

Take a look at these entries with their results.
O=[N+]([O-])c1cc([N+](=O)[O-])c2ccc(S(=O)(=O)O)cc2c1O    inactive
Oc1ccc2cc(SSc3ccc4cc(O)ccc4c3)ccc2c1    active

As a next step, examine the compound that follows.
For this compound, state the assay outcome: "CN1CCN(CCC(=O)N2c3ccccc3Sc3ccc(C(F)(F)F)cc32)CC1" active

---

# assay-details: qHTS assay to identify small molecule antagonists of the glucocorticoid receptor (GR) signaling pathway - cell viability counter screen (AID 720693); further: nearly all actives have a fitted effect of over 55% in size
# details: GR-bla HeLa viability, CellTiter-Glo luminescence, 18 h, with 5 nM dexamethasone present; series mostly up to 58.5 µM
Results filed as inconclusive are left out. Active and inactive are the calls of the source. The call rests on the fitted dose curve; in most records, active means well fitted cell-killing curve with a large enough effect in the repeat runs; inconclusive means weak or mixed curves, or effect the other way; inactive means no such curve, though single readings can be large or run the other way.
Hi! Could you answer with just one of these? active, inactive

Oc1cc2ccccc2c2ccccc12    active
CCC(Cl)C(Cl)C(Cl)CC(Cl)C(Cl)C(C)Cl (centres undefined)    inactive
CCCCCCCCCCCC(=O)NCCCN(C)C    active
O=C(Oc1ccccc1)c1ccccc1C(=O)Oc1ccccc1    inactive
NC(=O)N1C(=O)C(C(=O)c2cc(Cl)cs2)c2cc(F)c(Cl)cc21 (centres undefined)    active
CSc1ccc(C(=O)c2[nH]c(=O)[nH]c2C)cc1    inactive

For this molecule, state the assay outcome: "O=C(c1ccc(O)cc1O)c1ccc(O)cc1O" inactive

For this molecule, state the assay outcome: "COc1cccc(N)c1" inactive

For this molecule, state the assay outcome: "S=c1[nH]c2ccccc2s1" inactive

For this molecule, state the assay outcome: "O=[N+]([O-])c1ccccc1Nc1ccccc1" inactive

For this molecule, state the assay outcome: "C[C@H]1[C@H]2CC[C@H]3[C@@H]4CC=C5C[C@@H](N(C)C)CC[C@]5(C)[C@H]4CC[C@]23CN1C" inactive

For this molecule, state the assay outcome: "CCCCCCCCCCC=O" inactive

For this molecule, state the assay outcome: "CCN1/C(=C/C=C/c2sc3ccccc3[n+]2CC)Sc2ccccc21" active

For this molecule, state the assay outcome: "O=C(Nc1cccc(Cl)c1)OCC#CCCl" active

---

# assay-details: qHTS assay to identify small molecule antagonists of the constitutive androstane receptor (CAR) signaling pathway - cell viability counter screen (AID 1224837); further: nearly all actives have a fitted effect of over 45% in size
# details: HepG2-CYP2B6-hCAR viability, CellTiter-Fluor, 23 h, co-treated with 50 nM CITCO; series mostly up to 92.4 µM
Results filed as inconclusive are left out. Calls of active or inactive are those of the source. Calls come from the whole dose curve; as a rule, active = well fitted cell-killing curve with a large enough effect in the repeat runs; inconclusive = weak or mixed curves, or effect the other way; inactive = flat fitted curve, though single readings scatter.
Hi! Could you answer with just one of these? active, inactive

Cc1cc(CCN2CCN(c3nsc4ccccc34)CC2)cc2c1NC(=O)CC2(C)C    active
Nc1c2ccccc2nc2ccccc12    inactive
CN(C)CCCOC1(Cc2ccccc2)CCCCCC1    inactive
Fc1ccc(C(c2ccc(F)cc2)N2CCN(C/C=C/c3ccccc3)CC2)cc1    inactive
CCCCCCCCOc1ccccc1C(=O)Nc1ccc(C(=O)OCC[N+](C)(CC)CC)cc1    inactive
CCCN(CCC)C(=O)C(CCC(=O)OCCCN1CCN(CCOC(=O)Cc2c(C)n(C(=O)c3ccc(Cl)cc3)c3ccc(OC)cc23)CC1)NC(=O)c1ccccc1 (stereo not drawn)    active

For this compound, state the assay outcome: "CCc1cc(Cc2cc(CC)c(N)c(CC)c2)cc(CC)c1N" inactive

For this compound, state the assay outcome: "O=S1(=O)CC(Cl)(Cl)C(Cl)(Cl)C1" active

For this compound, state the assay outcome: "CCOC(=O)/C=C(C)/C=C/C=C(C)/C=C/c1c(C)cc(OC)c(C)c1C" inactive

Numbers sourced from PubChem BioAssay (Tox21).
